Molecular target: Rat PTPase 1B (Rattus norvegicus)
Construct: cloning the full-length cDNA into the bacterial expression vector, PKK233-2; made in house; host or cells: bacteria (vector PKK233-2)
Sequence (P20417 1-432): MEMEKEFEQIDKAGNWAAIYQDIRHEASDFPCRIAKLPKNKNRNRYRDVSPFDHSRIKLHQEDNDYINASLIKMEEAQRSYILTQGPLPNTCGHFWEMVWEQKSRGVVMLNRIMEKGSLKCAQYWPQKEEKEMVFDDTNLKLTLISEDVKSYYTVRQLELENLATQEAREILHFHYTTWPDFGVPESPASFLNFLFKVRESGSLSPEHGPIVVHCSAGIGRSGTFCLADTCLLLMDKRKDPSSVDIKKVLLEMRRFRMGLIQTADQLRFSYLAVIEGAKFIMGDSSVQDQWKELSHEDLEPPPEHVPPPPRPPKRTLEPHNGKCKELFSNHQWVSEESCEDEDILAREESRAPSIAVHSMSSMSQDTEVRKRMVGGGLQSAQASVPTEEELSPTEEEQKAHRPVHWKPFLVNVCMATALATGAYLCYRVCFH
Test: PTPase 1B peptide dephosphorylation (Km) and inhibition (Ki)
Assay type: biochemical
Conditions: apparent Km, phosphotyrosine and pY-peptides as substrates
Non-standard residues stand in square brackets, D forms with d. Residues, ends and D or L forms follow the SMILES beside them. pY = N[C@@H](Cc1ccc(OP(=O)(O)O)cc1)C(=O)O
Recorded Km for the following compounds
Write the answer as a number in µM, unit excluded.

Answered examples (3):
{"columns": ["compound", "Km (µM)"],
 "data": [
  ["CSCC[C@H](NC(=O)[C@@H]1CCCN1C(=O)[C@H](CCSC)NC(=O)[C@H](Cc1ccc(OP(=O)(O)O)cc1)NC(=O)[C@H](CC(=O)O)NC(=O)CNC(=O)[C@H](CC(N)=O)NC(=O)CN)C(=O)N[C@@H](CO)C(=O)N1CCC[C@H]1C(=O)N[C@@H](CCCCN)C(=O)N[C@@H](CO)C(=O)O [IRS-1(pY628), GNGDpYMPMSPKS] (H-GNGD[pY]MPMSPKS-OH)", 100],
  ["CC[C@H](C)[C@H](NC(=O)[C@H](CC(=O)O)NC(=O)[C@@H](N)CCCNC(=N)N)C(=O)N[C@@H](Cc1ccc(O)cc1)C(=O)N[C@@H](CCC(=O)O)C(=O)N[C@H](C(=O)N[C@@H](CC(=O)O)C(=O)N[C@@H](Cc1ccc(O)cc1)C(=O)N[C@@H](Cc1ccc(OP(=O)(O)O)cc1)C(=O)N[C@@H](CCCNC(=N)N)C(=O)N[C@@H](CCCCN)C(=O)O)[C@@H](C)O [IR1155-1165(pY1163), RDIYETDYpYRK] (H-RDIYETDY[pY]RK-OH)", 30],
  ["CSCC[C@H](NC(=O)[C@@H]1CCCN1C(=O)[C@H](CCSC)NC(=O)[C@H](Cc1ccc(OP(=O)(O)O)cc1)NC(=O)CNC(=O)[C@H](CC(=O)O)NC(=O)[C@H](CC(=O)O)NC(=O)[C@@H](N)[C@@H](C)O)C(=O)N[C@@H](CO)C(=O)N1CCC[C@H]1C(=O)NCC(=O)N[C@H](C(=O)O)C(C)C [IRS-1(pY608), TDDGpYMPMSPGV] (H-TDDG[pY]MPMSPGV-OH)", 30]
]}

# get_value(readout= Km, system= Rat PTPase 1B (Rattus norvegicus)) for CC[C@H](C)[C@H](NC(=O)[C@H](CO)NC(=O)[C@H](CCC(=O)O)NC(=O)[C@H](CC(=O)O)NC(=O)[C@@H](N)CCCCN)C(=O)N[C@@H](CC(=O)O)C(=O)N[C@@H](Cc1ccc(OP(=O)(O)O)cc1)C(=O)N[C@H](C(=O)N1CCC[C@H]1C(=O)N[C@@H](CCSC)C(=O)N[C@@H](CC(C)C)C(=O)N[C@@H](CC(=O)O)C(=O)N[C@@H](CCSC)C(=O)N[C@@H](CCCCN)C(=O)NCC(=O)N[C@@H](CC(=O)O)C(=O)O)C(C)C [mPDGF-Rβ(pY719), KDESIDpYVPMLDMKGD] (H-KDESID[pY]VPMLDMKGD-OH) 8

Could you do the same for CC[C@H](C)[C@H](NC(=O)[C@H](CC(=O)O)NC(=O)[C@@H](N)CCCNC(=N)N)C(=O)N[C@@H](Cc1ccc(OP(=O)(O)O)cc1)C(=O)N[C@@H](CCC(=O)O)C(=O)N[C@H](C(=O)N[C@@H](CC(=O)O)C(=O)N[C@@H](Cc1ccc(O)cc1)C(=O)N[C@@H](Cc1ccc(O)cc1)C(=O)N[C@@H](CCCNC(=N)N)C(=O)N[C@@H](CCCCN)C(=O)O)[C@@H](C)O [1R1155-1165(pY1158), RDIpYETDYYRK] (H-RDI[pY]ETDYYRK-OH) , please? 30

Could you do the same for C[C@@H](O)[C@H](N)C(=O)N[C@@H](CCC(=O)O)C(=O)N1CCC[C@H]1C(=O)N[C@@H](CCC(=O)O)C(=O)N[C@@H](Cc1ccc(OP(=O)(O)O)cc1)C(=O)N[C@@H](CCC(N)=O)C(=O)N1CCC[C@H]1C(=O)NCC(=O)N[C@@H](CCC(=O)O)C(=O)O [pp60^c-src (pYS27), TEPEpYQPGE] (H-TEPE[pY]QPGE-OH) , please? 8

Could you do the same for CC[C@H](C)[C@H](NC(=O)[C@H](CC(=O)O)NC(=O)[C@@H](N)CCCNC(=N)N)C(=O)N[C@@H](Cc1ccc(O)cc1)C(=O)N[C@@H](CCC(=O)O)C(=O)N[C@H](C(=O)N[C@@H](CC(=O)O)C(=O)N[C@@H](Cc1ccc(OP(=O)(O)O)cc1)C(=O)N[C@@H](Cc1ccc(O)cc1)C(=O)N[C@@H](CCCNC(=N)N)C(=O)N[C@@H](CCCCN)C(=O)O)[C@@H](C)O [IR1155-1165(pY1162), RDIYETDpYYRK] (H-RDIYETD[pY]YRK-OH) , please? 40

The values you see were collected from patent US5801149A.
